Values from paper PMC3731299

- Measured On: Mt-trHbN(III) (Mycobacterium tuberculosis, UniProt P9WN25)
- Construct: made in house
- Assay Notes: biochemical
- Assay type: binding
- Condition Details: Equation 7, H obs/H ratio versus [isoniazid] 1.0×10^−3 to 4.0×10^−3 M; pH 7.0, 20.0°C
pKd: −log10 of the molar value.
Quantity Name: pKd

NNC(=O)c1ccncc1 4.02

====

- Measured On: Mt-trHbN(II) (Mycobacterium tuberculosis, UniProt P9WN25)
- Construct: made in house
- Assay Notes: Isoniazid binding to Mt-trHbN(II), stopped-flow, anaerobic
- Condition Details: average of the D values here determined
Quantity Name: Kd (µM)

NNC(=O)c1ccncc1 1200

====

- Measured On: Mt-trHbN(III) (Mycobacterium tuberculosis)
- Construct: made in house
- Assay Notes: biochemical
- Assay type: binding
- Condition Details: pH 7.0, 20.0°C; obtained at equilibrium, Equation 1; read-out: dissociation equilibrium constant K for isoniazid binding to Mt-trHbN(III)
Quantity Name: Kd (µM)

Compound	Recorded Result
NNC(=O)c1ccncc1 [isoniazid]	110

====

- Measured On: Mt-trHbN(III) (Mycobacterium tuberculosis, UniProt P9WN25)
- Construct: made in house
- Assay Notes: biochemical
- Assay type: binding
- Condition Details: pH 7.0, 20.0°C; read-out: K calculated from kinetic parameters (k off/k on)
Quantity Name: Kd

NNC(=O)c1ccncc1 87 µM

====

- Measured On: Mt-trHbN(II) (Mycobacterium tuberculosis, UniProt P9WN25)
- Construct: made in house
- Assay Notes: O2 binding to Mt-trHbN(II) in the absence and presence of isoniazid (tonometer method)
- Condition Details: read-out: dissociation equilibrium constant B for O2 binding to Mt-trHbN(II); absence of isoniazid; pH 7.0, 20.0°C; Equation 15
pKd: −log10 of the molar value.
Quantity Name: pKd

O=O 7.36

====

- Measured On: Mt-trHbN(III) (Mycobacterium tuberculosis)
- Construct: made in house
- Assay Notes: biochemical
- Assay type: binding
- Condition Details: pH 7; read-out: H calculated from kinetic parameters (h off/h on)
Quantity Name: Kd (µM)

Compound	Recorded Result
[N-]=[N+]=[N-] [azide]	74

====

- Measured On: Mt-trHbN(III) (Mycobacterium tuberculosis, UniProt P9WN25)
- Construct: made in house
- Assay Notes: biochemical
- Assay type: binding
- Condition Details: read-out: dissociation equilibrium constant H for azide binding to Mt-trHbN(III); pH 7

Molecule	Unit Abbrev	Kd
[N-]=[N+]=[N-] [azide]	µM	73
